Experiment summary: protein stability index of a GFP-peptide fusion (GPS, HEK-293T) (PSI 1-6); higher = more stable;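 also: 24-mer peptide tiles fused after GFP, lentivirally expressed, FACS-sorted into six equal bins by GFP/DsRed ratio, decoded by Illumina sequencing, PSI is the read-weighted mean bin number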
Test context: treatment: DMSO; c terminus: a fixed tail appended
Tag: 1 (yes) if measured protein stability index is not below 3, 0 (no) if it is.

Input: Check this sequence for protein stability index at or above 3: RLSNNQRYLFLDGDSHYEIEIVHI [ZFYVE21]
Output: 1 (yes)

Input: Check this sequence for protein stability index at or above 3: VNEFGMSGEDPTAAAPVAEVPTAA [CLPTM1]
Output: 1 (yes)

Input: Check this sequence for protein stability index at or above 3: SQLSVLSLSGVMLTDVSPEPLQAL [PRAME]
Output: 0 (no)

Input: Check this sequence for protein stability index at or above 3: MKAAVDLKPTLTIIKTEKVDLELF [ETS1]
Output: 0 (no)

Input: Check this sequence for protein stability index at or above 3: TSIEEGYERSFIHKIKHKHILAKN [IQUB]
Output: 1 (yes)

Input: Check this sequence for protein stability index at or above 3: LYHRADVEKVLRRWVDEEWPKRER [EDARADD]
Output: 0 (no)

Input: Check this sequence for protein stability index at or above 3: RQMHLARFLRMLLRLADEFGVAVV [RAD51]
Output: 0 (no)

Input: Check this sequence for protein stability index at or above 3: ASLAAAKKQLADETLLKVDLENRC [LMNB1]
Output: 1 (yes)

Input: Check this sequence for protein stability index at or above 3: TPEEQGELEPLKGNFDWEAIFDAG [FOXJ1]
Output: 1 (yes)

Input: Check this sequence for protein stability index at or above 3: NENDFYDGAWCAGRNDLQQWIEVD [CPXM2]
Output: 1 (yes)

Input: Check this sequence for protein stability index at or above 3: NWRYATGGWETVFRPVSETCTDRS [FUT8]
Output: 0 (no)

Input: Check this sequence for protein stability index at or above 3: KLYGQRERVWALAQEKAADVQARL [FCHSD1]
Output: 1 (yes)
